- Tested on: Pseudomonas aeruginosa
- Procedure summary: Broth microdilution MIC (Example 12)
- Stated conditions: P. aeruginosa CDC 246; NDM/OXA
Assay metric: MIC

{"Molecule": "C[C@@H](O)[C@H]1C(=O)N2C(C(=O)O)=C(S[C@@H]3CN[C@H](C(=O)N(C)C)C3)[C@H](C)[C@H]12 [MEM]", "Reading": ">8 µg/mL"}
{"Molecule": "CC(C)(O/N=C(\\C(=O)N[C@@H]1C(=O)N2C(C(=O)[O-])=C(C[n+]3ccccc3)CS[C@H]12)c1csc(N)n1)C(=O)O [CAZ]", "Reading": ">64 µg/mL"}
{"Molecule": "C[C@H]1COc2c(N3CCN(C)CC3)c(F)cc3c(=O)c(C(=O)O)cn1c23 [LVX]", "Reading": ">8 µg/mL"}
{"Molecule": "NCC[C@H](O)C(=O)N[C@@H]1C[C@H](N)[C@@H](O[C@H]2O[C@H](CN)[C@@H](O)[C@H](O)[C@H]2O)[C@H](O)[C@H]1O[C@H]1O[C@H](CO)[C@@H](O)[C@H](N)[C@H]1O [AMK]", "Reading": ">64 µg/mL"}
